Values were extracted from patent US10167279B2.

Quick reference for IC50 among some compounds
Measurement Target: b-Raf (V600E) (Homo sapiens (Human), UniProt P15056, V600E)
Sequence (P15056 whole entry V600E): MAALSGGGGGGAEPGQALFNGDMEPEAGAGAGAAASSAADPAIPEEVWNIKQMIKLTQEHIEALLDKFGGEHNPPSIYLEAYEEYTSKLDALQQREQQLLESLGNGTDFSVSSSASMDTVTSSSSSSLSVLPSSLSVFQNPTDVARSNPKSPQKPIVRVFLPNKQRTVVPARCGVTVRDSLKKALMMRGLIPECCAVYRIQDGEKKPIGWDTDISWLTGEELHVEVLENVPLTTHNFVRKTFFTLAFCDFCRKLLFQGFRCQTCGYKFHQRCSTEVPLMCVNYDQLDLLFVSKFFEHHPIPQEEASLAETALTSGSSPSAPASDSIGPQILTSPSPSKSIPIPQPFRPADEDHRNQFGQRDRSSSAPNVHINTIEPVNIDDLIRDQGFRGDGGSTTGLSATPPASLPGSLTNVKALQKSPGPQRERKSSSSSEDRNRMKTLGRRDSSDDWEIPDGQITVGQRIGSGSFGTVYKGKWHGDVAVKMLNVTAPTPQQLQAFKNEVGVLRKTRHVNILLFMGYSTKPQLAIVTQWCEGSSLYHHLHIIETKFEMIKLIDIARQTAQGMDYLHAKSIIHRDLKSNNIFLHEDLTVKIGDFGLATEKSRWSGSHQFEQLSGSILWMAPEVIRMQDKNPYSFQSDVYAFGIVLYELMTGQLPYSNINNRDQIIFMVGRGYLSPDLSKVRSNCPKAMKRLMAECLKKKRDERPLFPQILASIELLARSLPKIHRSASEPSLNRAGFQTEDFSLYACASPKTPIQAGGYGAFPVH
Test Details: In vitro Raf activity determination (Alpha Screen, phospho-MEK), b-Raf (V600E)
Conditions: ATP 10 μM, 60 min pre-incubation, 3 hours reaction
The response must be a number in nM with no trailing unit.

# Compound, IC50 [nM]
rows = [
    ("COc1ncc(-c2cc(NC(=O)c3cc(C(C)(F)F)ccn3)ccc2C)cc1C1(O)COC1 [Example 92]", 2.2),
    ("COc1ncc(-c2cc(NC(=O)c3ccnc(C(F)(F)F)c3)cnc2C)cc1C1(F)COC1 [Example 79]", 4),
    ("COc1ncc(-c2cc(NC(=O)c3ccnc(C(C)(F)F)c3)cnc2C)cc1C1(O)COC1 [Example 77]", 24),
    ("Cc1ncc(NC(=O)c2ccnc(C(F)(F)F)c2)cc1-c1cnc(OCCO)c(C2(F)COC2)c1 [Example 38]", 4.84),
]

# return recorded IC50 for entry COc1ncc(-c2cc(NC(=O)c3ccnc(C(C)(C)O)c3)ccc2C)cc1C1(O)COC1 [Example 73]
23.4

Query IC50 for Cc1ccc(NC(=O)c2ccnc(C(C)(C)O)c2)cc1-c1cc(C2(C)COC2)c2nccn2n1 [Example 62]
3.77

Find the measured IC50 of COc1ncc(-c2cc(NC(=O)c3cc(C(C)(C)N)cc(C(F)(F)F)c3)ccc2C)cc1C1(C(F)F)COC1 [Example 112] and report it.
1.21

# return recorded IC50 for input COc1ncc(-c2cc(NC(=O)c3cc(C(C)(C)F)ccn3)cnc2C)cc1C1(O)COC1 [Example 94]
31.8
